target_system: human EGFR (native sequence) (Homo sapiens, UniProt P00533)
Sequence (P00533 25-1210): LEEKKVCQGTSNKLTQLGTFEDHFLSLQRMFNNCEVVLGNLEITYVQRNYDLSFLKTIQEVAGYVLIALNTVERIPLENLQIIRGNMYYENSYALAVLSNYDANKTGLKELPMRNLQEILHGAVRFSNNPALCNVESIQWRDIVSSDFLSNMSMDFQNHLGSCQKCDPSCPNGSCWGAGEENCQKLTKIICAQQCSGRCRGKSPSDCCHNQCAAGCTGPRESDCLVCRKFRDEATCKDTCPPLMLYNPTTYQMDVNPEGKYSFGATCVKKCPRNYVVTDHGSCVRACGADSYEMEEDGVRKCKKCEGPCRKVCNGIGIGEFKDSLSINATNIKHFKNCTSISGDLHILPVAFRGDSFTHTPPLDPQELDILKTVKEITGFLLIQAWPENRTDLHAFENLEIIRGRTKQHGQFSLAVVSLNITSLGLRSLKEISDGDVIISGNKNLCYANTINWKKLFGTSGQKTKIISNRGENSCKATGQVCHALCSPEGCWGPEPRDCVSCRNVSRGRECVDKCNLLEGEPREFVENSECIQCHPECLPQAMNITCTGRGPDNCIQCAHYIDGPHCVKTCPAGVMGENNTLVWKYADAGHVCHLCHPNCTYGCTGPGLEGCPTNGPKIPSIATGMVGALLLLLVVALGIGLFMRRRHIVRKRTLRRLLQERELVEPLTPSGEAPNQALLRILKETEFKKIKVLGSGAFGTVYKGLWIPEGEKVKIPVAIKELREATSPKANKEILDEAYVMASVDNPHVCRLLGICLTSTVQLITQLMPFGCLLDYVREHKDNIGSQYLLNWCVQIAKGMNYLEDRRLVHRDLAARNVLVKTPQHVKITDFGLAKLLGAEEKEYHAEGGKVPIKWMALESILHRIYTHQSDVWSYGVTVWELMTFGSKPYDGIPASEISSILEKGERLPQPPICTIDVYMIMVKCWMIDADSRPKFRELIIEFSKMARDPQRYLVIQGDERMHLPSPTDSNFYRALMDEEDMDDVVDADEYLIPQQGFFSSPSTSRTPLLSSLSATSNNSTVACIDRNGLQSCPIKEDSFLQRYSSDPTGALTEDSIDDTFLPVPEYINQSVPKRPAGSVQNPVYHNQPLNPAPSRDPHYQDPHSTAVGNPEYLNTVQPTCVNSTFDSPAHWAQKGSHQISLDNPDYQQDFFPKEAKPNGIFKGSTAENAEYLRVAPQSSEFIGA
protocol_details: Kinase inhibitory activity against human EGFR (native sequence)
Type: biochemical
run_conditions: human EGFR native sequence; 10 μM ATP; read-out: IC50 for kinase inhibition, EGFR
pIC50: −log10 of the molar value.
Items are presented alongside their recorded pIC50.

Illustrative cases are given below, each with its answer.
>>> df
                                   compound                             target_system  recorded_value
0  C=C(CN1CCCC1)C(=O)Nc1ccc(OC)c(Nc2ncc(Cl)c(Nc3ccccc3P(C)(C)=O)n2)c1 [Example 42]  human EGFR (native sequence) (Homo sapiens, UniProt P00533)          > 7.30
1  C=CC(=O)Nc1cc(Nc2ncc(Cl)c(Nc3ccccc3P(C)(C)=O)n2)c(OC)cc1C(=O)N1CCN(C)CC1 [Example 56]  human EGFR (native sequence) (Homo sapiens, UniProt P00533)    6.60 to 7.00
2  C=CC(=O)Nc1cc(Nc2ncc(Cl)c(Nc3ccccc3P(C)(C)=O)n2)c(OC)cc1N1CCC(N2CCCN(C)CC2)CC1 [Example 71]  human EGFR (native sequence) (Homo sapiens, UniProt P00533)          > 7.30
3  C=CC(=O)Nc1cc(Nc2ncc(Cl)c(Nc3ccccc3P(C)(C)=O)n2)c(OC)cc1OC1CCN(C)C1 (stereo not shown) [Example 13]  human EGFR (native sequence) (Homo sapiens, UniProt P00533)          > 7.30
4  COc1ccc(NC(=O)/C=C\C(=O)O)cc1Nc1ncc(Cl)c(Nc2ccccc2P(C)(C)=O)n1 [Example 61]  human EGFR (native sequence) (Homo sapiens, UniProt P00533)          ≤ 6.60

input: Which pIC50 value belongs to C=C(CN1CCNC(=O)C1)C(=O)Nc1ccc(OC)c(Nc2ncc(Cl)c(Nc3ccccc3P(C)(C)=O)n2)c1 [Example 47] ?
output: > 7.30

input: Query (compound): C=C(CN1CCOCC1)C(=O)Nc1ccc(OC)c(Nc2ncc(Cl)c(Nc3ccccc3P(C)(C)=O)n2)c1 [Example 48] ; field requested: pIC50
output: > 7.30

###

List of GI50 values.
target_system: BaF3 cells expressing the target EGFR mutations (Homo sapiens, UniProt P00533, T790M, cells depend on it, form not given)
Construct: IC50, BAF3 EGFR DEL T790M PURO POOL; other: BAF3 EGFR DEL T790M PURO POOL cells, MTT; other: BAF3 EGFR DEL T790M PURO POOL cells; MTT
Sequence (P00533 with tags, fused parts or gaps DEL746-750/T790M, form open): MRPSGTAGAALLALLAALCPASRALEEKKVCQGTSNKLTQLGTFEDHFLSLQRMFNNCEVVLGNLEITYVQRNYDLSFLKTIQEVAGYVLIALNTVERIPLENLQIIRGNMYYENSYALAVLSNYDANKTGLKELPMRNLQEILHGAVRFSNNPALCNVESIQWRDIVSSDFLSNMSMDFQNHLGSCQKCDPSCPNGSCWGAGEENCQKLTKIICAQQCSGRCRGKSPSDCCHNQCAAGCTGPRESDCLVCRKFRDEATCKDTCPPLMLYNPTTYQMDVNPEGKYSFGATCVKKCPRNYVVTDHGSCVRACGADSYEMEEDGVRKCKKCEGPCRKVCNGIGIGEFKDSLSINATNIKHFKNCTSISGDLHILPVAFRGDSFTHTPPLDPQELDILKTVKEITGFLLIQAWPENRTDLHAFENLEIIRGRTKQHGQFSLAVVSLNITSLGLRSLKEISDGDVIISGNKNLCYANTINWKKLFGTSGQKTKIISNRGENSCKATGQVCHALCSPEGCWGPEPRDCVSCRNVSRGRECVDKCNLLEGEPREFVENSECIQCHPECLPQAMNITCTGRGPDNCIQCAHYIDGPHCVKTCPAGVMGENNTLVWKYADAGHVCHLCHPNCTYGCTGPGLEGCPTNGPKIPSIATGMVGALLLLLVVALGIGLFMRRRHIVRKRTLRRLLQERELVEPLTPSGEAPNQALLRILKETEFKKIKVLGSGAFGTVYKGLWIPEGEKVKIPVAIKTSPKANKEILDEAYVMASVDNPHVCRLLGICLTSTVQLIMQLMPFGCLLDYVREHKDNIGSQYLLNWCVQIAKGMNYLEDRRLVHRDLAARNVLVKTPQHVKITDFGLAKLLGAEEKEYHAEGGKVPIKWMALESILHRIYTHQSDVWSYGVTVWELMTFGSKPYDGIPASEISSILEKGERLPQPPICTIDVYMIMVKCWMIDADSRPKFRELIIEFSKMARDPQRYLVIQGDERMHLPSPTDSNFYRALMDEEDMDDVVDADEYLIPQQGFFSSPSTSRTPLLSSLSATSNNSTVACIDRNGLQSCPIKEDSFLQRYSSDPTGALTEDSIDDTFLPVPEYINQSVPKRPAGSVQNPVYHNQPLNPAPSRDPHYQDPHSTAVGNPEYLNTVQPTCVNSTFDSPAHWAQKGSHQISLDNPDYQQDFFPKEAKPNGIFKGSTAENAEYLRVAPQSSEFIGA
protocol_details: Antiproliferative activity (MTT) against BaF3 cells expressing the target EGFR mutations
Type: cell-based
run_conditions: BAF3 EGFR DEL T790M PURO POOL cells, read-out: IC50, BAF3 EGFR DEL T790M PURO POOL

Examples with answers:
>>> print(df.to_string())
                                   molecule  recorded_value
0  C=CC(=O)Nc1cc(Nc2ncc(Cl)c(Nc3ccccc3P(C)(C)=O)n2)c(OC)cc1C#CC(C)(C)N         < 50 nM
1  C=CC(=O)Nc1cc(Nc2ncc(Cl)c(Nc3ccccc3P(C)(C)=O)n2)c(OC)cc1OCC(CO)N(C)C (centres unmarked)   101 to 250 nM
2  C=CC(=O)Nc1cc(Nc2ncc(Cl)c(Nc3ccccc3P(C)(C)=O)n2)c(OC)cc1C#CCN(C)C         < 50 nM
3  C=CC(=O)Nc1cc(Nc2ncc(Cl)c(Nc3ccccc3P(C)(C)=O)n2)c(OC)cc1N1CCC(N2CCOCC2)CC1         < 50 nM
4  C=C(CN1CCN(C)CC1)C(=O)Nc1ccc(OC)c(Nc2ncc(Cl)c(Nc3ccccc3P(C)(C)=O)n2)c1         < 50 nM
5  C=CC(=O)Nc1ccc(OC)c(Nc2cc(Nc3ncccc3P(C)(C)=O)ncn2)c1        ≥ 250 nM
6  C=CC(=O)Nc1cc(Nc2ncc(Cl)c(Nc3ccccc3P(C)(C)=O)n2)c(OC)cc1N1CCC(O)C1 (centres unmarked)    50 to 100 nM
7  COc1ccc(NC(=O)/C=C\C(=O)O)cc1Nc1ncc(Cl)c(Nc2ccccc2P(C)(C)=O)n1        ≥ 250 nM

input: What value of GI50 has been recorded for this entry: `COc1ccc(NC(=O)/C=C/C(=O)N(C)C)cc1Nc1ncc(Cl)c(Nc2ccccc2P(C)(C)=O)n1`
output: ≥ 250 nM

input: For the molecule `COc1ccc(NC(=O)/C=C/CN2CCCC2)cc1Nc1ncc(Cl)c(Nc2ccccc2P(C)(C)=O)n1` , what GI50 is on record?
output: 50 to 100 nM

input: Which GI50 is listed for `CNC(=O)/C=C\C(=O)Nc1ccc(OC)c(Nc2ncc(Cl)c(Nc3ccccc3P(C)(C)=O)n2)c1` ?
output: < 50 nM

input: Which GI50 value belongs to `COc1ccc(NC(=O)/C=C/C2(NC(=O)OC(C)(C)C)CC2)cc1Nc1ncc(Cl)c(Nc2ccccc2P(C)(C)=O)n1` ?
output: ≥ 250 nM

input: Which value of GI50 has been reported for `C=CC(=O)Nc1cc(Nc2ncc(Cl)c(Nc3ccccc3P(C)(C)=O)n2)c(OC)cc1C#CCN(C)CCOC` in the records?
output: < 50 nM

input: Field request: GI50 | item: `C=CC(=O)Nc1ccc(OC)c(Nc2ncc(Cl)c(Nc3ccc(OCC4CCOCC4)cc3P(C)(C)=O)n2)c1`
output: < 50 nM

input: Which value of GI50 has been reported for C=CC(=O)Nc1cc(Nc2ncc(Cl)c(Nc3ccccc3P(C)(C)=O)n2)c(OC)cc1OC(COC)CN1CCC1 (centres unmarked) in the records?
output: < 50 nM

input: Consider the molecule shown here: `C=CC(=O)Nc1cc(Nc2ncc(Cl)c(Nc3ccccc3P(C)(C)=O)n2)c(C)cc1C#CCN(C)C` What is its recorded GI50?
output: < 50 nM

###

Test system: BaF3 cells expressing wildtype EGFR
protocol_details: Antiproliferative activity (MTT) against control BaF3 cells expressing wildtype EGFR
Assay type: cell-based
run_conditions: Mus musculus, BAF3 parental cells
outcome_measure: IC50

input: What value of IC50 has been reported for the following compound? `C=CC(=O)Nc1ccc(Cl)c(Nc2ncc(Cl)c(Nc3ccccc3P(C)(C)=O)n2)c1`
output: ≥ 250 nM

input: What IC50 value was documented for this compound, `CNC(=O)/C=C/C(=O)Nc1ccc(OC)c(Nc2ncc(Cl)c(Nc3ccccc3P(C)(C)=O)n2)c1` ?
output: ≥ 250 nM

input: Returns the measured IC50 for the input compound. Input: `COc1cc(F)c(NC(=O)CCl)cc1Nc1ncc(Cl)c(Nc2ccccc2P(C)(C)=O)n1`
output: ≥ 250 nM

input: Which value of IC50 has been reported for `C=CC(=O)Nc1cc(Nc2ncc(Cl)c(Nc3ccccc3P(C)(C)=O)n2)c(OC)cc1C#CCN1CCCC1` in the records?
output: ≥ 250 nM

###

Reported GI50 values for a set of compounds
target_system: BaF3 cells expressing the target EGFR mutations (Homo sapiens, UniProt P00533, T790M/L858R, cells depend on it)
Construct: IC50, BAF3 EGFR L858R-T790M PURO POOL; other: BAF3 EGFR L858R-T790M PURO POOL cells, MTT; IC50, BAF3 EGFR L858R-T790M PURO POOL; other: BAF3 EGFR L858R-T790M PURO POOL cells; MTT
Sequence (P00533 whole entry T790M/L858R): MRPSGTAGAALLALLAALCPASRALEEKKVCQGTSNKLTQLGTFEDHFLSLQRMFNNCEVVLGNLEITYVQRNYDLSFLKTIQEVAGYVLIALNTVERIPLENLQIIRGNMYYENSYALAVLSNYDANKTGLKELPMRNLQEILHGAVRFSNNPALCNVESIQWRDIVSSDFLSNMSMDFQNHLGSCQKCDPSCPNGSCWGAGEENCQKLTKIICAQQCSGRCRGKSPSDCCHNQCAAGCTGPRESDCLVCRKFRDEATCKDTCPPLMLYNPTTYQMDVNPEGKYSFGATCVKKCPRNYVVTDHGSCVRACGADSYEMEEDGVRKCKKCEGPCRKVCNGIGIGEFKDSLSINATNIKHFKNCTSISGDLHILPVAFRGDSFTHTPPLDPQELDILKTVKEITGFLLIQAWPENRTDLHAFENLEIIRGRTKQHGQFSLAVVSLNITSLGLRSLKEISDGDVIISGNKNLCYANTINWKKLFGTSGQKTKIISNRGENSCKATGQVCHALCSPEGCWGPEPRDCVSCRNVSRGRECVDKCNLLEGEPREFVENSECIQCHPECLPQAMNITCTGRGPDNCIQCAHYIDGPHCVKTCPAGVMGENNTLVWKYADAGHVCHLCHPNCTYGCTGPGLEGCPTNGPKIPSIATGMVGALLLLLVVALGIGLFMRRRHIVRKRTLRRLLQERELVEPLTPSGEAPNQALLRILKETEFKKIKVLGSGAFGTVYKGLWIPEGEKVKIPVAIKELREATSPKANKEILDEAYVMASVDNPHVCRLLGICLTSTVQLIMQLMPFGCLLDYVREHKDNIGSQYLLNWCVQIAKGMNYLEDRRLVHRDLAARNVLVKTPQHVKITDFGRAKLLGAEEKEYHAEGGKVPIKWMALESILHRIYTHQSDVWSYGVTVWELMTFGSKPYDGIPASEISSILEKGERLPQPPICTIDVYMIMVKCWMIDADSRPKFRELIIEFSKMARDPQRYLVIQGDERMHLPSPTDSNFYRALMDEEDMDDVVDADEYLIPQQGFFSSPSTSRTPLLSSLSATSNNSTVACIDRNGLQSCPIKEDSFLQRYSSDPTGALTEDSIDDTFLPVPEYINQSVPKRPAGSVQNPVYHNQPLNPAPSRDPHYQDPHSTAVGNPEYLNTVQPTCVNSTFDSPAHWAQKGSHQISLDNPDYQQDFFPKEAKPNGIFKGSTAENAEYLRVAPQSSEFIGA
protocol_details: Antiproliferative activity (MTT) against BaF3 cells expressing the target EGFR mutations
Type: cell-based
run_conditions: BAF3 EGFR L858R-T790M PURO POOL cells, read-out: IC50, BAF3 EGFR L858R-T790M PURO POOL

Some compounds with recorded GI50:
In [3]: df
Out[3]:
                                   compound  outcome_measure  recorded_value
0  C=CC(=O)Nc1cc(Nc2ncc(Cl)c(Nc3ccccc3P(C)(C)=O)n2)c(OC)cc1N1CCC(N2CCN(C)CC2)CC1 [Example 22]             GI50  0.05 to 0.1 µM
1  C=CC(=O)Nc1cc(Nc2ncc(Cl)c(Nc3ccccc3P(C)(C)=O)n2)c(OC)cc1N1CC[C@H](N(C)C)C1 (stereo in doubt) [Example 29]             GI50       < 0.05 µM
2  COc1cc(N2CCOCC2)c(NC(=O)C#CCCN(C)C)cc1Nc1ncc(Cl)c(Nc2ccccc2P(C)(C)=O)n1 [Example 114]             GI50       < 0.05 µM

Please turn your attention to the following entry.
input: # GI50 lookup, item C=CC(=O)Nc1cc(Nc2ncc(Cl)c(Nc3ccccc3P(C)(C)=O)n2)c(OC)cc1C [Example 133]
output: < 0.05 µM
